target: Dual specificity calcium/calmodulin-dependent 3',5'-cyclic nucleotide phosphodiesterase 1C (Homo sapiens); assay: Inhibition of PDE1c
Metric name: IC50 (nM)
Expressed in nM, but write only the number.

Exercise: Query: IC50; subject: "Cc1ccc(N[C@@H]2CCCC[C@H]2Cc2nc3c(C(C)C)[nH]nc3c(=O)[nH]2)nn1"
Key: 7600

Exercise: Ok, now "CC(C)c1n[nH]c2c(=O)[nH]c(Cc3cccc(Cl)c3)nc12"
Key: 4

Exercise: Cool, now "CC(C)c1n[nH]c2c(=O)[nH]c(Cc3ccccc3OCCN3CCOCC3)nc12"
Key: 1130

Exercise: Thanks! And "CC(C)c1n[nH]c2c(=O)[nH]c(C[C@@H]3CCCC[C@H]3OCCN3CCOCC3)nc12" ?
Key: 2050

Exercise: # iterate: "CC(C)c1[nH]nc2c(=O)[nH]c(C[C@@H]3CCCC[C@H]3NC(=O)NCCCN3CCOCC3)nc12"
Key: 4200

Exercise: What do we get for "CC(C)c1n[nH]c2c(=O)[nH]c(C[C@@H]3CCCC[C@H]3Nc3ncccn3)nc12" ?
Key: 4400

Exercise: Next: "CC(C)c1n[nH]c2c(=O)[nH]c(Cc3ccccc3OC(F)(F)F)nc12"
Key: 520

Exercise: Again, but for "CC(C)c1[nH]nc2c(=O)[nH]c(C[C@@H]3CCCC[C@H]3NC(=O)CC3CCOCC3)nc12"
Key: 3100

Exercise: Follow-up entry: "CC(C)c1n[nH]c2c(=O)[nH]c(Cc3ccccc3OCc3ccccc3)nc12"
Key: 1340

Exercise: Param item: "CC(C)c1nn(C)c2c(=O)[nH]c(Cc3ccccc3OCCN3CCOCC3)nc12"
Key: 970

* * *

IC50 values recorded for UniProtKB O60658
Sequence (O60658 whole entry): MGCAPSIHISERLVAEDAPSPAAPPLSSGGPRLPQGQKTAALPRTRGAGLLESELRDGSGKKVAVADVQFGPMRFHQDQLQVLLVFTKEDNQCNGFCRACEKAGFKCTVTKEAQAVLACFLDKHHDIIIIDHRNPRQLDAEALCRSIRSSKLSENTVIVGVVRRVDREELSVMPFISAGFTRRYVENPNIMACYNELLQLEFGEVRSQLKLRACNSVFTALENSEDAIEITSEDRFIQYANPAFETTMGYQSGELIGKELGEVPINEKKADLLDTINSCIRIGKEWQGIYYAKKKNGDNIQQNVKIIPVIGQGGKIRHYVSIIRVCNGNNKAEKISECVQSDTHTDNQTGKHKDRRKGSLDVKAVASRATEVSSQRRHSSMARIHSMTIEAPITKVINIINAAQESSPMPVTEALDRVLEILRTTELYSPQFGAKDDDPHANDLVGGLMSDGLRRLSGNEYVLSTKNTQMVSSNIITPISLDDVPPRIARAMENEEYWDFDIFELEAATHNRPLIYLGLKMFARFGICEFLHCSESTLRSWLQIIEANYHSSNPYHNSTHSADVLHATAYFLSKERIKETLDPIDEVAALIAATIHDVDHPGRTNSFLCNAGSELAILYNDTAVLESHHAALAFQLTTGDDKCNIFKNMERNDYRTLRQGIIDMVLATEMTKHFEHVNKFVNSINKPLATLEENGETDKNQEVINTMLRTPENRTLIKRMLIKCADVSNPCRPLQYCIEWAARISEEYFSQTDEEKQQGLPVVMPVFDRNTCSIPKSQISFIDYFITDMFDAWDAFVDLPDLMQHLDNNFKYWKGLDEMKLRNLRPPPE

Exercise: I have this molecule here, "CC(C)c1n[nH]c2c(=O)[nH]c(C[C@@H]3CCCC[C@H]3Nc3ncc(C(=O)O)c(C(F)(F)F)n3)nc12" , and I need its recorded IC50.
Key: > 1 µM

Exercise: Try this molecule too: "CC(C)c1n[nH]c2c(=O)[nH]c(Cc3ccccc3OCCN3CCOCC3)nc12"
Key: > 10 µM

Exercise: What do you get for "CC(C)c1n[nH]c2c(=O)[nH]c(C[C@@H]3CCCC[C@H]3Nc3ncccn3)nc12" ?
Key: > 10 µM

* * *

assay: in vivo; settings: rat
Metric name: clearance (mL/min/kg)
Express the result in mL/min/kg but write the number alone.

Exercise: # get_value(readout='clearance', item= "CC(C)c1n[nH]c2c(=O)[nH]c(C[C@@H]3CCCC[C@H]3Nc3ncc(C(=O)O)c(C(F)(F)F)n3)nc12" )
Key: 19.8

* * *

Task for the reader: assign each of the following compounds its reported IC50.
assay: Inhibition of PDE11

Exercise: Recorded IC50 for "CC(C)c1n[nH]c2c(=O)[nH]c(Cc3ccccc3OCCN3CCOCC3)nc12" , please?
Key: > 10 µM

Exercise: Same read-out for "CC(C)c1n[nH]c2c(=O)[nH]c(C[C@@H]3CCCC[C@H]3Nc3ncc(C(=O)O)c(C(F)(F)F)n3)nc12" ?
Key: > 1 µM

Exercise: For "CC(C)c1n[nH]c2c(=O)[nH]c(C[C@@H]3CCCC[C@H]3Nc3ncccn3)nc12" then?
Key: 8.4 µM

* * *

target: 3',5'-cyclic-AMP phosphodiesterase 7B (Homo sapiens, UniProt Q9NP56); assay: Inhibition of PDE7b
Metric name: IC50

Exercise: Recorded IC50 of "CC(C)c1n[nH]c2c(=O)[nH]c(C[C@@H]3CCCC[C@H]3Nc3ncccn3)nc12" , please.
Key: > 10 µM

* * *

These compounds were tested on High affinity 3',5'-cyclic-AMP phosphodiesterase 7A (Homo sapiens, UniProt Q13946); IC50 is the recorded read-out.
Sequence (Q13946 whole entry): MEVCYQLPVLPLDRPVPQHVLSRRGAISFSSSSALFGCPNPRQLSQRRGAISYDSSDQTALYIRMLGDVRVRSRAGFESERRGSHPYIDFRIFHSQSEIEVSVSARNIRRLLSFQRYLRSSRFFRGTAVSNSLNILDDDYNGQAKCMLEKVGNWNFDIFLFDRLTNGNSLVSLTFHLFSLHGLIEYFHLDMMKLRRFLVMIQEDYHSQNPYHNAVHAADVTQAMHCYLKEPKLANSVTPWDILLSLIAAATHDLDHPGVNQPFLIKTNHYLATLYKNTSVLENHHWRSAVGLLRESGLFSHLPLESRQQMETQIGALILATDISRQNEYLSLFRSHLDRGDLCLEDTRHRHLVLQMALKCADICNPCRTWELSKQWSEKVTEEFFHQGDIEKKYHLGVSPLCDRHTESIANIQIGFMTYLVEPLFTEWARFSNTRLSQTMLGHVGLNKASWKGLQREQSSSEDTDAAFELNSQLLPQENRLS

Exercise: What does the record list as IC50 for "CC(C)c1n[nH]c2c(=O)[nH]c(C[C@@H]3CCCC[C@H]3Nc3ncccn3)nc12" ?
Key: > 10 µM

Exercise: Moving on to the next compound: "CC(C)c1n[nH]c2c(=O)[nH]c(Cc3ccccc3OCCN3CCOCC3)nc12"
Key: > 10 µM

* * *

target: 3',5'-cyclic-AMP phosphodiesterase 4B (Homo sapiens, UniProt Q07343)
Metric name: IC50

Exercise: Entry "CC(C)c1n[nH]c2c(=O)[nH]c(C[C@@H]3CCCC[C@H]3Nc3ncccn3)nc12" , system 3',5'-cyclic-AMP phosphodiesterase 4B (Homo sapiens, UniProt Q07343): what IC50 was measured?
Key: > 10 µM

* * *

target: cGMP-inhibited 3',5'-cyclic phosphodiesterase 3A (Homo sapiens); assay: Inhibition of PDE3a
Sequence (Q14432 whole entry): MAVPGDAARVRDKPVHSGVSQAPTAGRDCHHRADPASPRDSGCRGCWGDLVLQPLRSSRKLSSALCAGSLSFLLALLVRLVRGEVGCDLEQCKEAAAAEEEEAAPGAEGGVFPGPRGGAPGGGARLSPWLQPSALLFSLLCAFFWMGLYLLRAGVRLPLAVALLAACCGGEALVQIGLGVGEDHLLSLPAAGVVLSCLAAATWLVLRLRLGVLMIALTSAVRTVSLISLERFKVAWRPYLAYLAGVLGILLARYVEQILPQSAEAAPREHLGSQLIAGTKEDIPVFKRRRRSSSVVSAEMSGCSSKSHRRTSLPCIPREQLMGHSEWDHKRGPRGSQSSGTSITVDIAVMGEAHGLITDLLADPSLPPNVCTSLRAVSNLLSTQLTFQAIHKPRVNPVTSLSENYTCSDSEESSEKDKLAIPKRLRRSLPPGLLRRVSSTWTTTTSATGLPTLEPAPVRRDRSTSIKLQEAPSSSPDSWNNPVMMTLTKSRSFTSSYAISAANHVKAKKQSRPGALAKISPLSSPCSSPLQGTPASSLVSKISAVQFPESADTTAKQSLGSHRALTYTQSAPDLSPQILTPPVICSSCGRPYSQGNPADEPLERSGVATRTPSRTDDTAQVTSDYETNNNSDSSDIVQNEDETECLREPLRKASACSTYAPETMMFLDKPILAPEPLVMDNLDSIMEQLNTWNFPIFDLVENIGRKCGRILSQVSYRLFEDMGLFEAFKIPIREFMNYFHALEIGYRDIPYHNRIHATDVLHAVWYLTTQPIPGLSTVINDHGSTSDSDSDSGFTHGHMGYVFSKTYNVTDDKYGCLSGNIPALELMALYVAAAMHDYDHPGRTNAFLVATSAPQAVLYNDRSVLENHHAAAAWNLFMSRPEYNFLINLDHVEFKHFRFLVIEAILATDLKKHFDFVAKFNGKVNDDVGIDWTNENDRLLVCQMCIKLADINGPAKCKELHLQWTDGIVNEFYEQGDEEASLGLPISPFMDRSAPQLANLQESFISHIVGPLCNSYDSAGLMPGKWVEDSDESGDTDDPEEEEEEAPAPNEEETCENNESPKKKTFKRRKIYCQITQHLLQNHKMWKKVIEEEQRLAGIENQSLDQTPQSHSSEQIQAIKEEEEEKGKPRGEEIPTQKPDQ
pIC50: −log10 of the molar value.
Can you tell me pIC50 for the items I'm about to list?

Exercise: I have this compound here, "CC(C)c1n[nH]c2c(=O)[nH]c(C[C@@H]3CCCC[C@H]3Nc3ncc(C(=O)O)c(C(F)(F)F)n3)nc12" , and I need its recorded pIC50.
Key: < 6.00

Exercise: Moving on to "CC(C)c1n[nH]c2c(=O)[nH]c(Cc3ccccc3OCCN3CCOCC3)nc12"
Key: < 5.00

* * *

target: cGMP-inhibited 3',5'-cyclic phosphodiesterase 3B (Homo sapiens)
Sequence (Q13370 whole entry): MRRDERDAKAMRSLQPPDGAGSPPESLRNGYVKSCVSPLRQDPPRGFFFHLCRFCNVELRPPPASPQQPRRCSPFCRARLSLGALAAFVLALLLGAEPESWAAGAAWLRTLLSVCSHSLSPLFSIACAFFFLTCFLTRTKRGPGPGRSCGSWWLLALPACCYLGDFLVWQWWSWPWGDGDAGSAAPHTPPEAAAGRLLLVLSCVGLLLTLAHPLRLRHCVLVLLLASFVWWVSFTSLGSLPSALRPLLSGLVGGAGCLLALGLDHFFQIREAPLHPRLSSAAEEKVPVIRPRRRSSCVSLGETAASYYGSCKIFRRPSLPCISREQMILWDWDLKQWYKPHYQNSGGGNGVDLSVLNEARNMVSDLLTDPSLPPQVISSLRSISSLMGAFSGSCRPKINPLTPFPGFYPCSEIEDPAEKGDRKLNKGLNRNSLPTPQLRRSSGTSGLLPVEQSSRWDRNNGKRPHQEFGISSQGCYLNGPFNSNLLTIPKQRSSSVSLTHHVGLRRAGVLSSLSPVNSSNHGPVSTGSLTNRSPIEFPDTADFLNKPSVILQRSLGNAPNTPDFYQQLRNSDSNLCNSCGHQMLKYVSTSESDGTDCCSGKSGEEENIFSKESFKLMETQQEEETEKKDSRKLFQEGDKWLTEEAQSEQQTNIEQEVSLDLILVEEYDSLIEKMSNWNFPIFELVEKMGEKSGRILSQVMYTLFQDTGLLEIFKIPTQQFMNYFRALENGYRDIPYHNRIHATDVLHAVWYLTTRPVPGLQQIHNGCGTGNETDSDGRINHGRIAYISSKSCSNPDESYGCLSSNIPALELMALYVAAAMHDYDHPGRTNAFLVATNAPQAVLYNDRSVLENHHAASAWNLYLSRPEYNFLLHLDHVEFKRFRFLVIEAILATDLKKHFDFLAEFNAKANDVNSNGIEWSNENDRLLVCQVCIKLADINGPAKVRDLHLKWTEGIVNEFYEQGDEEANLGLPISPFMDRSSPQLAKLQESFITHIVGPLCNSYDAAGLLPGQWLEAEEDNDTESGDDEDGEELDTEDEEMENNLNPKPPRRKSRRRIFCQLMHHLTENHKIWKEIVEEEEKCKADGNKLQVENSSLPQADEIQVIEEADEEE
Metric name: IC50

Exercise: Given the compound "CC(C)c1n[nH]c2c(=O)[nH]c(C[C@@H]3CCCC[C@H]3Nc3ncccn3)nc12" , what is its reported IC50?
Key: > 10 µM

* * *

molecular target: High affinity cGMP-specific 3',5'-cyclic phosphodiesterase 9A (Homo sapiens, UniProt O76083); assay: Inhibition of human recombinant PDE9 expressed in SF9 cells by scintillation proximity assay
Metric name: pIC50
A value of pIC50 is the negative decimal logarithm of a concentration given in moles per litre.

Exercise: Need pIC50 of "CC(C)c1n[nH]c2c(=O)[nH]c(C[C@@H]3CCCC[C@H]3OCCN3CCOCC3)nc12" , thanks.
Key: 7.06

Exercise: Next entry: "CC(C)c1nn(C)c2c(=O)[nH]c(Cc3ccccc3OCCN3CCOCC3)nc12"
Key: 6.28

Exercise: Input "CC(C)c1n[nH]c2c(=O)[nH]c(Cc3ccccc3OC(F)(F)F)nc12"
Key: 7.25

Exercise: Moving on to the next compound: "CC(C)c1n[nH]c2c(=O)[nH]c(Cc3ccccc3OCCN3CCOCC3)nc12"
Key: 7.39

Exercise: Next record, please: "Cc1ccc(N[C@@H]2CCCC[C@H]2Cc2nc3c(C(C)C)[nH]nc3c(=O)[nH]2)nn1"
Key: 7.64

Exercise: Quick one: "CC(C)c1n[nH]c2c(=O)[nH]c(C[C@@H]3CCCC[C@H]3Nc3ncc(C(=O)O)c(C(F)(F)F)n3)nc12"
Key: 8.15

Exercise: Moving on to the next compound: "CC(C)c1[nH]nc2c(=O)[nH]c(C[C@@H]3CCCC[C@H]3NC(=O)CC3CCOCC3)nc12"
Key: 7.72

Exercise: Next compound: "CC(C)c1n[nH]c2c(=O)[nH]c(C[C@@H]3CCCC[C@H]3Nc3ncccn3)nc12"
Key: 7.46

Exercise: Moving on to "CC(C)c1n[nH]c2c(=O)[nH]c(Cc3ccccc3OCc3ccccc3)nc12"
Key: 7.09

Exercise: Try this compound too: "CC(C)c1[nH]nc2c(=O)[nH]c(C[C@@H]3CCCC[C@H]3NC(=O)NCCCN3CCOCC3)nc12"
Key: 7.34

Exercise: Try this compound too: "CC(C)c1n[nH]c2c(=O)[nH]c(C[C@@H]3CCCC[C@H]3NC(=O)CN3CCCC3)nc12"
Key: 7.44

* * *

assay: Apparent permeability across MDCK cells; details: dog
Metric name: Papp (×10⁻⁶ cm/s)
Output spec: scalar in ×10⁻⁶ cm/s, unitless text.

Exercise: Look at this compound and give its reported Papp. "CC(C)c1n[nH]c2c(=O)[nH]c(Cc3ccccc3OC(F)(F)F)nc12"
Key: 10.8

Exercise: Please give the result for "CC(C)c1[nH]nc2c(=O)[nH]c(C[C@@H]3CCCC[C@H]3NC(=O)NCCCN3CCOCC3)nc12" too.
Key: 0.7

* * *

target: UniProtKB O95263
Sequence (O95263 whole entry): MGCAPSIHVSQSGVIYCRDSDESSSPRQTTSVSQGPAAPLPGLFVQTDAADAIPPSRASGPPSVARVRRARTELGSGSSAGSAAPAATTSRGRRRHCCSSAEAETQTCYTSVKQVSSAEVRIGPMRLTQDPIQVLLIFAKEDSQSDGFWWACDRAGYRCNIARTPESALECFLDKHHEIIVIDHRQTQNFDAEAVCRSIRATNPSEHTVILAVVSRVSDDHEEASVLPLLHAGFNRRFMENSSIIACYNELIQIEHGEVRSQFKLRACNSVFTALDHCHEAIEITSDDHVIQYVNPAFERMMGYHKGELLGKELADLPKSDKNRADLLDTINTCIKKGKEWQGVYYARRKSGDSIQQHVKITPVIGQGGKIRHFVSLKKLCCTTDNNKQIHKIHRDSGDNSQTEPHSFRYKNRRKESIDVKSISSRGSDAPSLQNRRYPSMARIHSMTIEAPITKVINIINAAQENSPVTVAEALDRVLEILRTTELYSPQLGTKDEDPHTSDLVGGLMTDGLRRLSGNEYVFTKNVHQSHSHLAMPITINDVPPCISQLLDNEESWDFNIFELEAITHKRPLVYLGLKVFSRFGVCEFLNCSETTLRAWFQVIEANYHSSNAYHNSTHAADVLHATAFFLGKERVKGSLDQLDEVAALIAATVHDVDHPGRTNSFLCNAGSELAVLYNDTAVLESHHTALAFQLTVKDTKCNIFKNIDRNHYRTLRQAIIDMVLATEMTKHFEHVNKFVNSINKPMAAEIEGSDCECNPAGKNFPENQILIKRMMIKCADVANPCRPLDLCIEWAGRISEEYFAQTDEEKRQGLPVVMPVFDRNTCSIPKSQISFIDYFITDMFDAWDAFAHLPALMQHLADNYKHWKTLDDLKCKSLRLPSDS
pIC50: −log10 of the molar value.
Metric name: pIC50

Exercise: Returns the measured pIC50 for the input compound. Input: "CC(C)c1n[nH]c2c(=O)[nH]c(Cc3ccccc3OCCN3CCOCC3)nc12"
Key: < 5.00

Exercise: Please answer likewise for "CC(C)c1n[nH]c2c(=O)[nH]c(C[C@@H]3CCCC[C@H]3Nc3ncccn3)nc12"
Key: < 5.00

Exercise: Also, "CC(C)c1n[nH]c2c(=O)[nH]c(C[C@@H]3CCCC[C@H]3Nc3ncc(C(=O)O)c(C(F)(F)F)n3)nc12" please.
Key: < 6.00

* * *

target: Dual specificity calcium/calmodulin-dependent 3',5'-cyclic nucleotide phosphodiesterase 1A (Homo sapiens); assay: Inhibition of PDE1a
Sequence (P54750 whole entry): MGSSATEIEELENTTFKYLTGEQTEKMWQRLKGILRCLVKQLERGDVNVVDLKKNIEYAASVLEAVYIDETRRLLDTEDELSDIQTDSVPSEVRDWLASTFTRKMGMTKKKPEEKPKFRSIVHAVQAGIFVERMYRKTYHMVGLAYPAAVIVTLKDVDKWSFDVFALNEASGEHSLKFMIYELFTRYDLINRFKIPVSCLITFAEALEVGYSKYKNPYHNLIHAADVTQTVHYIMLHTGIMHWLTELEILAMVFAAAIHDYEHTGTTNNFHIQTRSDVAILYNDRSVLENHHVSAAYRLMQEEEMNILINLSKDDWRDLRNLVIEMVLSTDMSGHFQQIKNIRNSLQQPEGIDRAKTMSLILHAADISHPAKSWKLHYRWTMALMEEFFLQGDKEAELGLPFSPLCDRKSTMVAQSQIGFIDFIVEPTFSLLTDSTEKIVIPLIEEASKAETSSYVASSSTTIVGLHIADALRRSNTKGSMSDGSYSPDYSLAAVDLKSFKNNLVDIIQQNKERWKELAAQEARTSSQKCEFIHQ
Metric name: IC50 (µM)
The response must be a number in µM with no trailing unit.

Exercise: What value of measured IC50 is listed for "CC(C)c1nn(C)c2c(=O)[nH]c(Cc3ccccc3OCCN3CCOCC3)nc12" ?
Key: 0.79

Exercise: Also check "CC(C)c1n[nH]c2c(=O)[nH]c(Cc3ccccc3OCCN3CCOCC3)nc12"
Key: 3.9

Exercise: Now this one: "CC(C)c1n[nH]c2c(=O)[nH]c(C[C@@H]3CCCC[C@H]3Nc3ncccn3)nc12"
Key: 7.7

Exercise: Subsequent entry: "CC(C)c1n[nH]c2c(=O)[nH]c(Cc3ccccc3OCc3ccccc3)nc12"
Key: 1.43

Exercise: Similarly, "CC(C)c1n[nH]c2c(=O)[nH]c(Cc3cccc(Cl)c3)nc12" ?
Key: 0.054
